Data origin, for the record: the supplement of paper PMC10307832

Tested on: PC-3 [JPC-3]
experimentSummary: relative viability (nuclei count vs DMSO), 5 days (fraction); higher = more cells survive
measurementSetup: first compound 0.04 µM
Would you kindly list relative viability for each of these compounds?
Please reply with the value in numeric form only.

Entry under review: O=C(O)c1ccc(-c2c[nH]c3ncc(-c4ccccc4)cc23)cc1C1CCCC1 + CC(=O)c1c(C)c2cnc(Nc3ccc(N4CCNCC4)cn3)nc2n(C2CCCC2)c1=O [Palbociclib] (partner 0.5 µM) . Reported relative viability?
0.534

Thanks! And O=C(O)c1ccc(-c2c[nH]c3ncc(-c4ccccc4)cc23)cc1C1CCCC1 + CC1(C)CCC(c2ccc(Cl)cc2)=C(CN2CCN(c3ccc(C(=O)NS(=O)(=O)c4ccc(N[C@H](CCN5CCOCC5)CSc5ccccc5)c(S(=O)(=O)C(F)(F)F)c4)cc3)CC2)C1 [Navitoclax] (partner 0.5 µM) ?
0.817

Thanks! And O=C(O)c1ccc(-c2c[nH]c3ncc(-c4ccccc4)cc23)cc1C1CCCC1 + C[C@]1(O)C[C@@H](c2nc(-c3ccc4ccc(-c5ccccc5)nc4c3)c3c(N)nccn32)C1 [Linsitinib] (partner 1 µM) ?
0.915

Thanks! And O=C(O)c1ccc(-c2c[nH]c3ncc(-c4ccccc4)cc23)cc1C1CCCC1 + N=C(N)NC(=N)NCCc1ccccc1 [Phenformin] (partner 250 µM) ?
0.475

Thanks! And O=C(O)c1ccc(-c2c[nH]c3ncc(-c4ccccc4)cc23)cc1C1CCCC1 + COc1cc2c(Oc3ccc(NC(=O)C4(C(=O)Nc5ccc(F)cc5)CC4)cc3F)ccnc2cc1OCCCN1CCOCC1 [Foretinib] (partner 0.25 µM) ?
1

Thanks! And O=C(O)c1ccc(-c2c[nH]c3ncc(-c4ccccc4)cc23)cc1C1CCCC1 + Nc1ncn([C@H]2C[C@H](O)[C@@H](CO)O2)c(=O)n1 [Decitabine] (partner 2 µM) ?
0.824

Thanks! And O=C(O)c1ccc(-c2c[nH]c3ncc(-c4ccccc4)cc23)cc1C1CCCC1 + CS(=O)(=O)CCNCc1ccc(-c2ccc3ncnc(Nc4ccc(OCc5cccc(F)c5)c(Cl)c4)c3c2)o1 [Lapatinib] (partner 2 µM) ?
0.51
